# test_target: T1, human IL-12 (human, UniProt P29459 23-219; P29460 23-328)
# T1 construct: recombinant human IL-12 heterodimer (p35/p40, disulfide-linked); also called hIL-12; rhIL-12
# T1 sequence (looked up) 1: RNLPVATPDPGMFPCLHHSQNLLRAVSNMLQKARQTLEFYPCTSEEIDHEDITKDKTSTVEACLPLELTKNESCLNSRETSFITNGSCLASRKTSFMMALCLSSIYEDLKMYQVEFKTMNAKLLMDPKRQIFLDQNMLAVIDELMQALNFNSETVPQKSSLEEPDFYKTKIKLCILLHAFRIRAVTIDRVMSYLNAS
# T1 sequence (looked up) 2: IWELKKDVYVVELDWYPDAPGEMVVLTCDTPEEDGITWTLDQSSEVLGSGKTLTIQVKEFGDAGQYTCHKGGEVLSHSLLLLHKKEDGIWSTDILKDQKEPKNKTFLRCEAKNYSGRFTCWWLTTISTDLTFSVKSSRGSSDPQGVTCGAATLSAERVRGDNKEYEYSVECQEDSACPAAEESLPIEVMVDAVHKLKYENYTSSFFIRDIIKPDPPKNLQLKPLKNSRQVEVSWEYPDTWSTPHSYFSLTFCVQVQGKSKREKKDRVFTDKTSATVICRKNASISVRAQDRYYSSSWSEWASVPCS
# procedure_details: RB assay: 125I-hIL-12 binding to PHA blasts
Record form. Attribute: pIC50. Fill in for each entry.
Please report pIC50 as the negative decimal logarithm of the molar concentration, giving only the number.

Q: pIC50 for 101-11 (scFv, V domains shown, scFv) VH: QVQLVQSGGGVVQPGRSLRLSCAASGFTFSSYGMHWVRQAPGKGLEWVAFIRYDGSNKYYADSVKGRFTISRDNSKNTLYLQMKSLRAEDTAVYYCTTHGSHDNWGQGTMVTVSS VL: SYVLTQPPSVSGTPGQRVTISCSGGRSNIGSNTVKWYQQLPGTAPKLLIYGNDQRPSGVPDRFSGSKSGTSASLAITGVQAEDEADYYCQSYDRGFTGSRVFGTGTKVTVL ?
Ans: 8.70

Q: And what about the binder 149-7 (scFv, V domains shown, scFv) VH: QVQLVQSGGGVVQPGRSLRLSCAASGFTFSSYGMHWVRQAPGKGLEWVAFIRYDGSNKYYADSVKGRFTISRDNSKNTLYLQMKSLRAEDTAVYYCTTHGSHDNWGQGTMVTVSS VL: SYVLTQPPSVSGTPGQRVTISCSGGRSNIGSNTVKWYQQLPGTAPKLLIYGNDQRPSGVPDRFSGSKSGTSASLAITGVQAEDEADYYCQSYDRDFTGSRVFGTGTKVTVL ?
Ans: 9.05

Q: And what about the binder 103-8 (scFv, V domains shown, scFv) VH: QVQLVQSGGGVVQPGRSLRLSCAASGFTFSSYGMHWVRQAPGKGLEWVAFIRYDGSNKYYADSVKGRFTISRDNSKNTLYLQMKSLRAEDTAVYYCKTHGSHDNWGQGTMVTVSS VL: SYVLTQPPSVSGTPGQRVTISCSGGRSNIGSNTVKWYQQLPGTAPKLLIYGNDQRPSGVPDRFSGSKSGTSASLAITGVQAEDEADYYCQTYDKGFTGSSVFGTGTKVTVL ?
Ans: 10.22
